Entry source: patent US11053204B2

# Test system: barnyardgrass (Echinochloa crus-galli)
# measurement-protocol: Test C postemergence, plant response rating
# Type: in vivo
# experimental-setup: 62 g ai/ha, scale 0 to 100 (0 no effect, 100 complete control)

compound	Barnyardgrass plant response rating
CCCC(=O)c1c(Oc2ncc(Cl)cn2)cccc1C(F)(F)F	10
N#CC(CCCC(F)(F)F)c1ccccc1Oc1ncc(Cl)cn1 (stereo not shown)	10
O=C(CCCCC(F)(F)F)c1c(Br)cccc1Oc1ncc(Cl)cn1	10
O=C(CCC(F)(F)F)c1c(Br)cccc1Oc1ncc(Cl)cn1	15

----------
# Tested on: lambsquarters (Chenopodium album)
# measurement-protocol: Test C postemergence, plant response rating
# Type: in vivo
# experimental-setup: Chenopodium album, post-emergence, 125 g ai/ha, scale 0 to 100 (0 no effect, 100 complete control)
Reported pest or weed control at 125 g/ha is given for each of the following compounds.

compound	pest or weed control at 125 g/ha (%)
CC(CC(F)(F)F)OC(=O)c1c(Br)cccc1Oc1ncc(Cl)cn1 (stereo not shown) [Compound 16]	60
C=CCOC(=O)c1c(Br)cccc1Oc1ncc(Cl)cn1 [Compound 22]	75
O=C(OCC(F)(F)C(F)(F)F)c1c(Br)cccc1Oc1ncc(Cl)cn1 [Compound 23]	80
O=C(OCCCC(F)(F)F)c1c(Br)cccc1Oc1ncc(Cl)cn1 [Compound 20]	85

----------
Each item that follows carries a reported Plant response rating, Surinam Grass.
# System: surinam grass (Brachiaria decumbens)
# measurement-protocol: Test C preemergence, plant response rating
# Type: in vivo
# experimental-setup: 62 g ai/ha, scale 0 to 100

compound	assay-system	Plant response rating, Surinam Grass
O=C(CCCCC(F)(F)F)c1c(Br)cccc1Oc1ncc(Cl)cn1 [Compound 82]	surinam grass (Brachiaria decumbens)	25
O=C(CCCC(F)(F)F)c1c(Oc2ncc(Cl)cn2)cccc1C(F)(F)F [Compound 125]	surinam grass (Brachiaria decumbens)	40
CCCCC(=O)c1c(Br)cccc1Oc1ncc(Cl)cn1 [Compound 79]	surinam grass (Brachiaria decumbens)	50
FC(F)(F)CCCc1c(Br)cccc1Oc1ncc(Cl)cn1 [Compound 89]	surinam grass (Brachiaria decumbens)	65

----------
# Test system: Italian ryegrass (Lolium multiflorum)
# measurement-protocol: Test A postemergence, visual injury rating
# Type: in vivo
# experimental-setup: 31 g ai/ha, 0 to 100 scale, 0 is no effect, 100 is complete control, approximately 10 days

smiles-text	Ryegrass, Italian plant response rating
CN(CCCC(F)(F)F)c1c(C#N)cccc1Oc1ncc(Cl)cn1	0
C=C(C)COC(=O)c1c(Br)cccc1Oc1ncc(Cl)cn1	0
O=C(CCC(F)(F)F)c1c(Cl)cccc1Oc1ncc(Cl)cn1	20
C#CCOC(=O)c1c(Br)cccc1Oc1ncc(Cl)cn1	0
CC(=NOC(C)C)c1c(Cl)cccc1Oc1ncc(Cl)cn1	0

----------
# Test system: oilseed rape (Brassica napus)
# measurement-protocol: Test C postemergence, plant response rating
# Format: in vivo
# experimental-setup: 31 g ai/ha, scale 0 to 100

compound	Plant response rating, Oilseed Rape
O=C(OCCC(F)(F)F)c1c(Br)cccc1Oc1ncc(Br)cn1 [Compound 33]	45
FC(F)(F)CCCCc1c(Br)cccc1Oc1ncc(Cl)cn1 [Compound 138]	85
N#CCCOC(=O)c1c(Br)cccc1Oc1ncc(Cl)cn1 [Compound 7]	0
CCCC(=O)c1c(Oc2ncc(Cl)cn2)cccc1C(F)(F)F [Compound 136]	80
O=C(CCCC(F)(F)F)c1c(Oc2ncc(Cl)cn2)cccc1C(F)(F)F [Compound 125]	85
O=C(CCCC(F)(F)F)c1c(Br)cccc1Oc1ncc(Cl)cn1 [Compound 77]	70
N#Cc1cccc(Oc2ncc(Cl)cn2)c1COCCC(F)(F)F [Compound 80]	60
CCCC(=O)c1c(Br)cccc1Oc1ncc(Cl)cn1 [Compound 75]	80
CCCCC(=O)c1c(Oc2ncc(Cl)cn2)cccc1C(F)(F)F [Compound 130]	85
O=C(CCC(F)(F)C(F)(F)F)c1c(Br)cccc1Oc1ncc(Cl)cn1 [Compound 110]	60

----------
# Tested on: ragweed (common ragweed, Ambrosia elatior)
# measurement-protocol: Test C postemergence, plant response rating
# Assay type: in vivo
# experimental-setup: 125 g ai/ha, scale 0 to 100 (0 no effect, 100 complete control)

smiles-text	Ragweed plant response rating
CCCC(=O)c1c(Oc2ncc(Cl)cn2)cccc1C(F)(F)F	35
O=C(CCCC(F)(F)F)c1c(Br)cccc1Oc1ncc(Cl)cn1	70
N#CCCOC(=O)c1c(Br)cccc1Oc1ncc(Cl)cn1	25
O=C(CCCCC(F)(F)F)c1c(Br)cccc1Oc1ncc(Cl)cn1	55
FC(F)(F)CCCCc1c(Cl)cccc1Oc1ncc(Cl)cn1	30
FC(F)(F)CCCc1c(Br)cccc1Oc1ncc(Cl)cn1	25

----------
# Tested on: blackgrass (Alopecurus myosuroides)
# measurement-protocol: Test C postemergence, plant response rating
# Type: in vivo
# experimental-setup: Alopecurus myosuroides, post-emergence, 125 g ai/ha, scale 0 to 100 (0 no effect, 100 complete control)
measured-property: pest or weed control at 125 g/ha (%)

smiles-text	measured-property	unit-descriptor	observed-measurement
O=C(OCCCC(F)(F)F)c1c(Br)cccc1Oc1ncc(Cl)cn1	pest or weed control at 125 g/ha	%	10
O=C(OCCC(F)(F)F)c1c(Br)cccc1Oc1ncc(Cl)cn1	pest or weed control at 125 g/ha	%	35
C=CCCOC(=O)c1c(Br)cccc1Oc1ncc(Cl)cn1	pest or weed control at 125 g/ha	%	5
O=C(CCC(F)(F)F)c1c(Cl)cccc1Oc1ncc(Cl)cn1	pest or weed control at 125 g/ha	%	60
O=C(OCCC(F)(F)F)c1c(Cl)cccc1Oc1ncc(Cl)cn1	pest or weed control at 125 g/ha	%	10
N#Cc1cccc(Oc2ncc(Cl)cn2)c1CCCCC(F)(F)F	pest or weed control at 125 g/ha	%	35

----------
# System: kochia (Kochia scoparia)
# measurement-protocol: Test A postemergence, visual injury rating
# Format: in vivo
# experimental-setup: 31 g ai/ha, 0 to 100 scale (0 no effect, 100 complete control)
In this section, each of the molecules is paired with its reported Kochia plant response rating.
measured-property: Kochia plant response rating

molecule	observed-measurement
N#CC(CCCCC(F)(F)F)c1ccccc1Oc1ncc(Cl)cn1 (stereo not shown)	70
N#CCc1ccccc1Oc1ncc(Cl)cn1	0
CCCCCC(C#N)c1ccccc1Oc1ncc(Cl)cn1 (stereo not shown)	50
N#Cc1cccc(Oc2ncc(Cl)cn2)c1COCC(F)(F)C(F)(F)F	40

----------
# Tested on: surinam grass (Brachiaria decumbens)
# measurement-protocol: Test C postemergence, plant response rating
# Type: in vivo
# experimental-setup: 31 g ai/ha, scale 0 to 100

smiles-text	Plant response rating, Surinam Grass
O=C(CCCCC(F)(F)F)c1c(Br)cccc1Oc1ncc(Cl)cn1	20
CCCC(=O)c1c(Oc2ncc(Cl)cn2)cccc1C(F)(F)F	5
FC(F)(F)CCCCc1c(Cl)cccc1Oc1ncc(Cl)cn1	10
CCCCC(=O)c1c(Oc2ncc(Cl)cn2)cccc1C(F)(F)F	10
CCCCC(=O)c1c(Br)cccc1Oc1ncc(Cl)cn1	25

----------
# System: pigweed (Amaranthus retroflexus)
# measurement-protocol: Test A preemergence, visual injury rating
# Format: in vivo
# experimental-setup: 125 g ai/ha, 0 to 100 scale (0 no effect, 100 complete control)
Reported Pigweed plant response rating by item:

smiles-text	assay-system	Pigweed plant response rating
CCCCc1c(C#N)cccc1Oc1ncc(Cl)cn1	pigweed (Amaranthus retroflexus)	100
N#CCCOC(=O)c1c(Br)cccc1Oc1ncc(Cl)cn1	pigweed (Amaranthus retroflexus)	100
O=C(NCCC(F)(F)F)c1c(Br)cccc1Oc1ncc(Cl)cn1	pigweed (Amaranthus retroflexus)	0
O=C(OCCC(F)(F)F)c1cc(Cl)ccc1Oc1ncc(Cl)cn1	pigweed (Amaranthus retroflexus)	0
O=C(OCC1CCC1)c1c(Br)cccc1Oc1ncc(Cl)cn1	pigweed (Amaranthus retroflexus)	10
N#Cc1cccc(Oc2ncc(Cl)cn2)c1CCCC(F)(F)F	pigweed (Amaranthus retroflexus)	100
O=C(CCCCC(F)(F)F)c1c(Br)cccc1Oc1ncc(Cl)cn1	pigweed (Amaranthus retroflexus)	100
CC(=NOC(C)C)c1c(C#N)cccc1Oc1ncc(Cl)cn1	pigweed (Amaranthus retroflexus)	100
O=C(SCC(F)(F)F)c1c(Br)cccc1Oc1ncc(Cl)cn1	pigweed (Amaranthus retroflexus)	0
O=C(OC(CCl)CCl)c1c(Br)cccc1Oc1ncc(Cl)cn1	pigweed (Amaranthus retroflexus)	0

----------
Reported pest or weed control at 500 g/ha by item:
# Test system: pigweed (Amaranthus retroflexus)
# measurement-protocol: Test A preemergence, visual injury rating
# Assay type: in vivo
# experimental-setup: Amaranthus retroflexus, pre-emergence, 240 h, 500 g ai/ha, 0 to 100 scale (0 no effect, 100 complete control), read-out: Pigweed plant response rating
measured-property: pest or weed control at 500 g/ha

compound	observed-measurement
O=C(NCC(F)(F)F)c1ccccc1Oc1ncc(Cl)cn1	80%
C=CCOC(=O)c1c(Br)cccc1Oc1ncc(Cl)cn1	100%
O=C(OCC(F)(F)C(F)(F)F)c1c(Br)cccc1Oc1ncc(Cl)cn1	100%
CC(CC(F)(F)F)OC(=O)c1c(Br)cccc1Oc1ncc(Cl)cn1 (stereo not shown)	100%
